# Study System: T1, mouse MuSK (mouse, UniProt Q61006 22-494, limits assumed)
# T1 construct: Coated on ELISA plates or on the Biacore chip; also called full length mouse MuSK; mouse MuSK (in house produced in HEK293 cells)
# T1 sequence (looked up): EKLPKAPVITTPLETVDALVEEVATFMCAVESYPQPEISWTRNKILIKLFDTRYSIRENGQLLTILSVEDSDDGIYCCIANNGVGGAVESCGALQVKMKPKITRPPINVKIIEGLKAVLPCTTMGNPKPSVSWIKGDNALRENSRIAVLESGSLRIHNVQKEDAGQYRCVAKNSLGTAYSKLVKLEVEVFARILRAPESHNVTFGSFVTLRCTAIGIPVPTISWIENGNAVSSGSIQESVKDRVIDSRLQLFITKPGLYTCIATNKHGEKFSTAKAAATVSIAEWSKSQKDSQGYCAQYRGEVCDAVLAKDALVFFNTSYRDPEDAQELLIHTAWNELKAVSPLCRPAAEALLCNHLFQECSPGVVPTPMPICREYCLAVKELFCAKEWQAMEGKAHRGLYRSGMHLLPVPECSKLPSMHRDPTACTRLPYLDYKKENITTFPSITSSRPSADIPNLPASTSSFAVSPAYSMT
# Assay Name: Biacore, MuSK on chip, association pH 7.4, dissociation pH 5.5
Quantity Measured: kon (M⁻¹ s⁻¹)
Provide the reading as a plain figure in M⁻¹ s⁻¹.

Recorded results for 3 binders are shown here.
Binder: 3B2g1m1 (antibody, human IgG1, V domains shown, human IgG1-LALA backbone; produced in HEK293 cells) VH: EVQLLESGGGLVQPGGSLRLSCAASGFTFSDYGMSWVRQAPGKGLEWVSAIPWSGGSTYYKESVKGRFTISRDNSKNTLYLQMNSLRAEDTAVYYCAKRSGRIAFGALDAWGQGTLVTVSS VL: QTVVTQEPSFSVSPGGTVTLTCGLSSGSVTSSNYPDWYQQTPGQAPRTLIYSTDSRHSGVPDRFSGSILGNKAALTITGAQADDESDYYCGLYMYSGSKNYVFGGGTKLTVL
kon [M⁻¹ s⁻¹]: 1.19e+06
--
Binder: 3B2g1m4 (antibody, human IgG1, V domains shown, human IgG1-LALA backbone; produced in HEK293 cells) VH: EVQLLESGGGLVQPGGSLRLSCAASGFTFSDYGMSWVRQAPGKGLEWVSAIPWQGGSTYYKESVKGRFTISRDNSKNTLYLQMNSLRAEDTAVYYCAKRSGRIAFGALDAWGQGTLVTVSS VL: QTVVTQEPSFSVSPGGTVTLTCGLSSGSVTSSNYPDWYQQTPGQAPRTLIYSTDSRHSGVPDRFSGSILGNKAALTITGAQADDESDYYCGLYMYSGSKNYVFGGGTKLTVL
kon [M⁻¹ s⁻¹]: 980000
--
Binder: 3B2g2m2 (antibody, human IgG1, V domains shown, human IgG1-LALA backbone; produced in HEK293 cells) VH: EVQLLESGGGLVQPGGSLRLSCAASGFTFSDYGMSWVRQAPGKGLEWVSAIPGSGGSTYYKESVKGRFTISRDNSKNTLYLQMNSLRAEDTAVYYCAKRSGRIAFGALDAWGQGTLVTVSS VL: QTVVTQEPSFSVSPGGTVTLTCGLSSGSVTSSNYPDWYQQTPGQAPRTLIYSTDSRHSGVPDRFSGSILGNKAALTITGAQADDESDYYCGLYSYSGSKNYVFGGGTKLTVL
kon [M⁻¹ s⁻¹]: 210000

Lab note: next binder to report on.
Sample 3B2g2m4 (antibody, human IgG1, V domains shown, human IgG1-LALA backbone; produced in HEK293 cells) VH: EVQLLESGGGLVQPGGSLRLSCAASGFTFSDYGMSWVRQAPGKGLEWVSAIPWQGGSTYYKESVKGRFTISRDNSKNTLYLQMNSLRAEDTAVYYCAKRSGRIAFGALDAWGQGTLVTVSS VL: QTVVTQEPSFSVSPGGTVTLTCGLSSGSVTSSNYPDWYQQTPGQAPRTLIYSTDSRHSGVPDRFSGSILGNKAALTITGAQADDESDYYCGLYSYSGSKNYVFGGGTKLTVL ; kon observed: 1.04e+06

Reference source for all entries: patent US20230151091A1
